B1: RAB11B (parent)
chain: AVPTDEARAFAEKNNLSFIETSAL

Variants of: B1
Test: protein stability index of a GFP-peptide fusion (GPS, HEK-293T) (PSI 1-6); higher = more stable;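 further: lentivirally expressed fusions sorted by FACS into six bins by GFP to DsRed ratio, PSI derived from sequencing read proportions per bin multiplied by bin number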
Conditions: c terminus: a fixed tail appended
The entries below are paired with their reported protein stability index.
MEASURED ATTRIBUTE: protein stability index

>>> measured_value("T4L")
2.33
>>> measured_value("K13L")
2.14
>>> measured_value("T4Q")
3.05
>>> measured_value("N14F")
2.25
>>> measured_value("I19T")
4.11
>>> measured_value("L24N")
4.87
>>> measured_value("V2L")
3.28
>>> measured_value("A9W")
1.78
>>> measured_value("I19W")
3.62
>>> measured_value("E6S")
2.2
>>> measured_value("A7F")
1.98
>>> measured_value("S22F")
2.52
>>> measured_value("E6I")
2.71
>>> measured_value("T4F")
2
>>> measured_value("I19P")
5.04
>>> measured_value("R8A")
2.77
>>> measured_value("F10P")
2.73
>>> measured_value("L16P")
4.47
